- target entity: EPHB4 (Homo sapiens)
- Construct: purchased ReactionBiology
- Sequence (P54760 16-987): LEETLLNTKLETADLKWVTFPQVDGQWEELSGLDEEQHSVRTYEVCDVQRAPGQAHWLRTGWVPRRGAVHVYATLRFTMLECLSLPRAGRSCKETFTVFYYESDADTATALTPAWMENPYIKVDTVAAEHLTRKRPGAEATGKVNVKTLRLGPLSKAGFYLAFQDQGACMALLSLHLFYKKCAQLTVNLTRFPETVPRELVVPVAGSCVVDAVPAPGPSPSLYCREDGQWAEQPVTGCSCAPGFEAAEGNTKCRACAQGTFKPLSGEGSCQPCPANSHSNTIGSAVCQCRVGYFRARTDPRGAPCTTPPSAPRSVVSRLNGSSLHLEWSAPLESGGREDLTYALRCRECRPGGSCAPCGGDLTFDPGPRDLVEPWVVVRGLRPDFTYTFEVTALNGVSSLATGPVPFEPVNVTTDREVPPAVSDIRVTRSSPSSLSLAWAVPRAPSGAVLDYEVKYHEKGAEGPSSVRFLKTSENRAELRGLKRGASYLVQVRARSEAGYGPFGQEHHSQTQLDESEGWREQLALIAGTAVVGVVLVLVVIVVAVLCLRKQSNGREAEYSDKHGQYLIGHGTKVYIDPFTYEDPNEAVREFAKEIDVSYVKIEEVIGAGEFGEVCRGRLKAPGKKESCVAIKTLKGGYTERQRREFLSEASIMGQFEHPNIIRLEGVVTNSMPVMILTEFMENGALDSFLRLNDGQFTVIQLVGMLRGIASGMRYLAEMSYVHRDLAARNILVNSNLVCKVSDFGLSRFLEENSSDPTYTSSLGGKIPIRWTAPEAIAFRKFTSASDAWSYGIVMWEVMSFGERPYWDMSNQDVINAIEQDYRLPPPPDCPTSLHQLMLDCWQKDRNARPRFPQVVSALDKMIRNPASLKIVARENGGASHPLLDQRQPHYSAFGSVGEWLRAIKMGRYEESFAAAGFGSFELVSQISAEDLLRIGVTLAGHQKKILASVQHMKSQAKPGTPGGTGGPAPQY
- experimental protocol: Kinase activity test (ReactionBiology), % enzyme activity relative to DMSO;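 note: EPHB4 was one of ten selected kinases in the screening panel, with enzyme activity expressed as a percentage of DMSO controls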
- Type: biochemical
- measurement context: EPHB4; 10 uM; Average
The entries below are paired with their reported % Enzyme Activity (relative to DMSO controls), Average.
endpoint: % Enzyme Activity (relative to DMSO controls), Average (%)

{"compound": "C/C(O)=C(\\C#N)C(=O)Nc1ccc(C(F)(F)F)cc1 [Teriflunomide]", "target entity": "EPHB4 (Homo sapiens)", "result unit": "%", "reported result": 94.56}
{"compound": "C[C@]12CCC(=O)C=C1CC[C@@H]1[C@@H]2[C@@H](O)C[C@@]2(C)[C@H]1CC[C@]2(O)C(=O)CO [Hydrocortisone]", "target entity": "EPHB4 (Homo sapiens)", "result unit": "%", "reported result": 91.65}
{"compound": "COc1ccc2c3c1O[C@H]1C[C@@H](O)C=C[C@@]31CCN(C)C2", "target entity": "EPHB4 (Homo sapiens)", "result unit": "%", "reported result": 94.53}
{"compound": "CCCCC1C(=O)N(c2ccccc2)N(c2ccccc2)C1=O", "target entity": "EPHB4 (Homo sapiens)", "result unit": "%", "reported result": 94.49}
{"compound": "Fc1ccc([C@@H]2CCNC[C@H]2COc2ccc3c(c2)OCO3)cc1", "target entity": "EPHB4 (Homo sapiens)", "result unit": "%", "reported result": 94.48}
{"compound": "C[C@H]1O[C@@H](O[C@H]2[C@@H](O)C[C@H](O[C@H]3[C@@H](O)C[C@H](O[C@H]4CC[C@@]5(C)[C@H](CC[C@@H]6[C@@H]5C[C@@H](O)[C@]5(C)[C@@H](C7=CC(=O)OC7)CC[C@]65O)C4)O[C@@H]3C)O[C@@H]2C)C[C@H](O)[C@@H]1O", "target entity": "EPHB4 (Homo sapiens)", "result unit": "%", "reported result": 92.84}
{"compound": "O=C(N[C@H](CO)[C@H](O)c1ccc([N+](=O)[O-])cc1)C(Cl)Cl", "target entity": "EPHB4 (Homo sapiens)", "result unit": "%", "reported result": 95.14}
{"compound": "CS(=O)(=O)c1ccc(C2=C(c3ccccc3)C(=O)OC2)cc1", "target entity": "EPHB4 (Homo sapiens)", "result unit": "%", "reported result": 82.31}
{"compound": "Cc1ccc(-c2cc(C(F)(F)F)nn2-c2ccc(S(N)(=O)=O)cc2)cc1", "target entity": "EPHB4 (Homo sapiens)", "result unit": "%", "reported result": 99.23}
{"compound": "O=C1c2cccc3c2[C@H](CCC3)CN1[C@@H]1CN2CCC1CC2", "target entity": "EPHB4 (Homo sapiens)", "result unit": "%", "reported result": 88.19}

The values you see were collected from paper PMC7252619.
